- target.or.system: T1, recombinant human IL-23 (hrIL-23), produced at Centocor (human, UniProt P29460 23-328)
- T1 construct: p19-p40 heterodimer; also called rhIL-23; huIL-23
- T1 sequence 1: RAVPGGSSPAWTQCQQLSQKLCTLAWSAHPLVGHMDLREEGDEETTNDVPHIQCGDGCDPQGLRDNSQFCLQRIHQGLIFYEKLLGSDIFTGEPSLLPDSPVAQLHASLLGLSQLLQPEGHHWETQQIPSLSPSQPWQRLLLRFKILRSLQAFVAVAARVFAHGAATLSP
- T1 sequence 2: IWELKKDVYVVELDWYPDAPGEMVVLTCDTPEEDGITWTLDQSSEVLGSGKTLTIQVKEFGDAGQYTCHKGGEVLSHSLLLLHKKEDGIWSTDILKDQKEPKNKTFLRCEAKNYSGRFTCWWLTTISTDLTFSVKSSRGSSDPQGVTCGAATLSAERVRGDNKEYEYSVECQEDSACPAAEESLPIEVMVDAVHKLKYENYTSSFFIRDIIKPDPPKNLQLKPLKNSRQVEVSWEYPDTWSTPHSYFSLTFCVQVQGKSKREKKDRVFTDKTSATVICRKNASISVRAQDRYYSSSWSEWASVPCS
- test.protocol: IL-23/IL-23R competition assay
value.type: IC50 (nM)
Number in nM, nothing else.

// known answers, use as guide
Query: Given the entry MOR05061 Fab (Fab, V domains shown, Fab) VH: QVQLVESGGGLVQPGGSLRLSCAASGFTFSSFGMSWVRQAPGKGLEWVSNISSSGSSTYYADSVKGRFTISRDNSKNTLYLQMNSLRAEDTAVYYCARYWGTPYLMQFDNWGQGTLVTVSS VL: DIALTQPASVSGSPGQSITISCTGTSSDVGGYNSVSWYQQHPGKAPKLMIYSVSSRPSGVSNRFSGSKSGNTASLTISGLQAEDEADYYCSSYYFYLQRIVFGGGTKLTVL , report its measured IC50.
Result: 1.25

Query: What about MOR05039 Fab (Fab, V domains shown, Fab) VH: QVQLVESGGGLVQPGGSLRLSCAASGFTFSSFGMSWVRQAPGKGLEWVSNIEHKYLNYATYYAASVKGRFTISRDNSKNTLYLQMNSLRAEDTAVYYCARYWGTPYLMQFDNWGQGTLVTVSS VL: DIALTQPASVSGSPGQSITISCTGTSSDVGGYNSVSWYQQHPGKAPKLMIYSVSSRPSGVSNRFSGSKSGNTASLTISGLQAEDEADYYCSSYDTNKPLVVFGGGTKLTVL ?
Result: 0.1

Query: And MOR05050 Fab (Fab, V domains shown, Fab) VH: QVQLVESGGGLVQPGGSLRLSCAASGFTFSSFGMSWVRQAPGKGLEWVSSIEHKYTGYTTYYAAPVKGRFTISRDNSKNTLYLQMNSLRAEDTAVYYCARYWGTPYLMQFDNWGQGTLVTVSS VL: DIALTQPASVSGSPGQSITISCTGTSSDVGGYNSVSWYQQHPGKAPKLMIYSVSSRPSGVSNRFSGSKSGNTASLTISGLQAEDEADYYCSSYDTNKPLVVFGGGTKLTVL ?
Result: 0.89

Query: Subsequent entry: MOR05063 Fab (Fab, V domains shown, Fab) VH: QVQLVESGGGLVQPGGSLRLSCAASGFTFSSFGMSWVRQAPGKGLEWVSNISSSGSSTYYADSVKGRFTISRDNSKNTLYLQMNSLRAEDTAVYYCARYWGTPYLMQFDNWGQGTLVTVSS VL: DIALTQPASVSGSPGQSITISCTGTSSDVGGYNSVSWYQQHPGKAPKLMIYSVSSRPSGVSNRFSGSKSGNTASLTISGLQAEDEADYYCGSWDPIFSYEVFGGGTKLTVL
Result: 0.32

Query: Would you mind doing MOR05049 Fab (Fab, V domains shown, Fab) VH: QVQLVESGGGLVQPGGSLRLSCAASGFTFSSFGMSWVRQAPGKGLEWVSGIEHKYLSYTTHYAASVKGRFTISRDNSKNTLYLQMNSLRAEDTAVYYCARYWGTPYLMQFDNWGQGTLVTVSS VL: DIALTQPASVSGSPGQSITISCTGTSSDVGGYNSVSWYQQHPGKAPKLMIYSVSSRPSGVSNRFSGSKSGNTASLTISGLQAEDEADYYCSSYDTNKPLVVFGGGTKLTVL as well?
Result: 0.39

Turning to the following binder.
Query: Fill blank: measured IC50 of the binder MOR05053 Fab (Fab, V domains shown, Fab) VH: QVQLVESGGGLVQPGGSLRLSCAASGFTFSSFGMSWVRQAPGKGLEWVSNIEHKYTSYTTYYAASVKGRFTISRDNSKNTLYLQMNSLRAEDTAVYYCARYWGTPYLMQFDNWGQGTLVTVSS VL: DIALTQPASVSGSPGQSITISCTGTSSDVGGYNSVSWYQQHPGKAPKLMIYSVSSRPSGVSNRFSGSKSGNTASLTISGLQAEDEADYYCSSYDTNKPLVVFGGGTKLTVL is ____.
Result: 0.98
